IC50 tested on Tyrosine-protein phosphatase non-receptor type 1 (Homo sapiens): recorded values
Sequence (P18031 whole entry): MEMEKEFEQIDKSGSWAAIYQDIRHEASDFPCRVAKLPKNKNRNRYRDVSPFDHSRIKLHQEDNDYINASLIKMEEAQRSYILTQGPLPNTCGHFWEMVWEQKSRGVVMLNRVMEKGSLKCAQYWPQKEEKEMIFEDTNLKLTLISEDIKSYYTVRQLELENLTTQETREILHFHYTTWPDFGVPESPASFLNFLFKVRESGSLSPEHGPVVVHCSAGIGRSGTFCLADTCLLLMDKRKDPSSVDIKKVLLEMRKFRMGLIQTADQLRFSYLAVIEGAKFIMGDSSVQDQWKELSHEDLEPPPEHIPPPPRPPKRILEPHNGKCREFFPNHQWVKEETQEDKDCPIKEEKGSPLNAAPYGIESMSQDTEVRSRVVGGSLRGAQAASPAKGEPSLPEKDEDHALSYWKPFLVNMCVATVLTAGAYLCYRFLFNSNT
Only the number, expressed in nM, is required.

- O=C1CC(c2ccc(CC(NS(=O)(=O)c3cc(Cl)cc(Cl)c3)c3nc4ccccc4[nH]3)cc2)S(=O)(=O)N1 (stereo not drawn): 51
- COc1cccc(S(=O)(=O)NC(Cc2ccc(C3CC(=O)NS3(=O)=O)cc2)c2nc3ccccc3[nH]2)c1 (stereo not drawn): 48

Query: IC50; subject: O=C1CC(c2ccc(CC(NS(=O)(=O)c3cc(F)cc(F)c3)c3nc4ccccc4[nH]3)cc2)S(=O)(=O)N1 (stereo not drawn)
72

What does the data say about its IC50? Entry: COc1ccc2[nH]c(C(Cc3ccc(C4CC(=O)NS4(=O)=O)cc3)NS(=O)(=O)c3ccc(-c4ccccc4)cc3)nc2c1 (stereo not drawn)
130

I have this compound here, N#Cc1ccc(S(=O)(=O)NC(Cc2ccc(C3CC(=O)NS3(=O)=O)cc2)c2nc3ccccc3[nH]2)cc1 (stereo not drawn) , and I need its recorded IC50.
63
